Multi-source literature compilation: IC50 on Glucocorticoid receptor (Homo sapiens, UniProt P04150).
readout name: IC50

CCC[C@@]12CC[C@@](O)(CC)C[C@@H]1CCCc1cc(C(=O)Nc3cccnc3C)ccc12.CCC[C@]12CC[C@](O)(CC)C[C@H]1CCCc1cc(C(=O)Nc3cccnc3C)ccc12	1000 to 10000 nM
C[C@H](NC(=O)C(C)(F)F)[C@H](Oc1ccc2c(cnn2-c2cccc(C(=O)N[C@H]3CC[S+]([O-])C3)c2)c1)c1ccc2c(c1)OCOC2 (single isomer, unassigned)	3.64 nM
Cc1nn(C)c2c1C(c1ccc(Cl)cc1Cl)SC(C)(C)C(=O)N2C (stereo not drawn)	1000 to 10000 nM
COc1ccccc1C1SCCNc2c1c(C)nn2C (stereo not drawn)	> 10000 nM
CC[C@@]12CC[C@](O)(COC)C[C@@H]1CCOc1cc3c(cnn3-c3ccnc(OC)c3)cc12	< 100 nM
C[C@H](NC(=O)C(C)(F)F)[C@H](Oc1ccc2c(cnn2-c2cccc(C(=O)NCc3ccccc3)c2)c1)c1ccc2c(c1)OCOC2	0.996 nM
CNC(=O)c1ccc(-c2nn(C)c3c2C(c2ccc(Cl)cc2Cl)SCCN3)nc1 (stereo not drawn)	1000 to 10000 nM
CCn1nc(-c2ccccn2)c2c1NCCCC2c1ccc(C(=O)Nc2cccnc2C)cc1C (stereo not drawn)	< 100 nM
CC[C@@]12CC[C@](O)(COC)C[C@@H]1CCCc1cc3c(cnn3-c3cccnc3)cc12	< 100 nM
CC(C)CC(=O)NCC(c1ccccc1)C(c1ccccc1)c1ccccc1 (stereo not drawn)	316 nM
CC[C@]12CC[C@@](O)(C(F)(F)F)C=C1CCCc1cc3c(cnn3-c3ccc(F)cc3)cc12 (single isomer, unassigned)	< 100 nM
C#C[C@@]1(O)CC[C@@]2(CC)c3cc4cnn(-c5ccc(F)cc5)c4cc3CCC[C@@H]2C1 (single isomer, unassigned)	< 100 nM
O=C(Cc1ccsc1)NCC(c1ccccc1)C(c1ccccc1)c1ccccc1 (stereo not drawn)	25 nM
Cc1cc(C#N)ccc1[C@@H]1S[C@@H](C)CNc2c1c(C)nn2C	100 to 1000 nM
CC[C@]12CC[C@@](O)(COC)C[C@H]1CCCc1cc3c(cnn3-c3ccc(F)cc3)cc12	< 100 nM
Cc1cc(Cl)ccc1[C@H]1S[C@H](CCO)CNc2c1c(-c1ccccn1)nn2C (single isomer, unassigned)	1000 to 10000 nM
Cn1nc(C2CC2)c2c1NCC(C)(C)SC2c1ccc(Cl)cc1F (single isomer, unassigned)	< 100 nM
COC[C@@]1(O)CC[C@@]2(CC3CC3)c3cc4cnn(-c5ccc(F)cc5)c4cc3CCC[C@H]2C1	< 100 nM
Cc1cccc(-c2nn(C)c3c2C(c2ccc(Cl)cc2C)SCCN3)n1 (stereo not drawn)	1000 to 10000 nM
O=C(NCC(c1ccccc1)C(c1ccccc1)c1ccccc1)c1cccs1 (stereo not drawn)	31 nM
CCn1nc(-c2ccccn2)c2c1N[C@@H](C)CS[C@@H]2c1ccc(C(N)=O)cc1C (single isomer, unassigned)	1000 to 10000 nM
CC[C@@]1(O)CC[C@@]2(Cc3ccccc3)c3ccc(C(=O)NC4=NC(=O)CN4C)cc3CCC[C@H]2C1	< 100 nM
O=C1CC[C@@]2(Cc3ccccc3)c3ccc(O)cc3CCC[C@@H]2C1.O=C1CC[C@]2(Cc3ccccc3)c3ccc(O)cc3CCC[C@H]2C1	100 to 1000 nM
CCCC(=O)NCC(c1ccccc1)C(c1ccccc1)c1ccccc1 (stereo not drawn)	446 nM
